test: Single ascending dose pharmacokinetics of intravenous CN-105 in healthy adults; settings: human, plasma, iv, 0.1 mg/kg
Where a SMILES comes first, the peptide text is derived from it.
Value type: clearance (mL/min)
Could you give me the number in mL/min? Just the number is fine.

// Input: CC(=O)N[C@H](C(=O)N[C@@H](CO)C(=O)N[C@@H](CCCNC(=N)N)C(=O)N[C@@H](CCCNC(=N)N)C(=O)N[C@@H](CCCNC(=N)N)C(N)=O)C(C)C [CN-105] (Ac-VSRRR-NH2; N-terminus and C-terminus assumed) . Output its clearance only.
137

====

assay: Single ascending dose pharmacokinetics of intravenous CN-105 in healthy adults; details: human, plasma, iv, 0.03 mg/kg
Where a SMILES comes first, the peptide text is derived from it.
Value type: clearance (mL/min)
Could you give me the number in mL/min? Just the number is fine.

// Input: CC(=O)N[C@H](C(=O)N[C@@H](CO)C(=O)N[C@@H](CCCNC(=N)N)C(=O)N[C@@H](CCCNC(=N)N)C(=O)N[C@@H](CCCNC(=N)N)C(N)=O)C(C)C [CN-105] (Ac-VSRRR-NH2; N-terminus and C-terminus assumed) . Output its clearance only.
150
